- assayTarget: hNav1.7 (Homo sapiens (Human), UniProt Q15858)
- Sequence (Q15858 whole entry, looked up): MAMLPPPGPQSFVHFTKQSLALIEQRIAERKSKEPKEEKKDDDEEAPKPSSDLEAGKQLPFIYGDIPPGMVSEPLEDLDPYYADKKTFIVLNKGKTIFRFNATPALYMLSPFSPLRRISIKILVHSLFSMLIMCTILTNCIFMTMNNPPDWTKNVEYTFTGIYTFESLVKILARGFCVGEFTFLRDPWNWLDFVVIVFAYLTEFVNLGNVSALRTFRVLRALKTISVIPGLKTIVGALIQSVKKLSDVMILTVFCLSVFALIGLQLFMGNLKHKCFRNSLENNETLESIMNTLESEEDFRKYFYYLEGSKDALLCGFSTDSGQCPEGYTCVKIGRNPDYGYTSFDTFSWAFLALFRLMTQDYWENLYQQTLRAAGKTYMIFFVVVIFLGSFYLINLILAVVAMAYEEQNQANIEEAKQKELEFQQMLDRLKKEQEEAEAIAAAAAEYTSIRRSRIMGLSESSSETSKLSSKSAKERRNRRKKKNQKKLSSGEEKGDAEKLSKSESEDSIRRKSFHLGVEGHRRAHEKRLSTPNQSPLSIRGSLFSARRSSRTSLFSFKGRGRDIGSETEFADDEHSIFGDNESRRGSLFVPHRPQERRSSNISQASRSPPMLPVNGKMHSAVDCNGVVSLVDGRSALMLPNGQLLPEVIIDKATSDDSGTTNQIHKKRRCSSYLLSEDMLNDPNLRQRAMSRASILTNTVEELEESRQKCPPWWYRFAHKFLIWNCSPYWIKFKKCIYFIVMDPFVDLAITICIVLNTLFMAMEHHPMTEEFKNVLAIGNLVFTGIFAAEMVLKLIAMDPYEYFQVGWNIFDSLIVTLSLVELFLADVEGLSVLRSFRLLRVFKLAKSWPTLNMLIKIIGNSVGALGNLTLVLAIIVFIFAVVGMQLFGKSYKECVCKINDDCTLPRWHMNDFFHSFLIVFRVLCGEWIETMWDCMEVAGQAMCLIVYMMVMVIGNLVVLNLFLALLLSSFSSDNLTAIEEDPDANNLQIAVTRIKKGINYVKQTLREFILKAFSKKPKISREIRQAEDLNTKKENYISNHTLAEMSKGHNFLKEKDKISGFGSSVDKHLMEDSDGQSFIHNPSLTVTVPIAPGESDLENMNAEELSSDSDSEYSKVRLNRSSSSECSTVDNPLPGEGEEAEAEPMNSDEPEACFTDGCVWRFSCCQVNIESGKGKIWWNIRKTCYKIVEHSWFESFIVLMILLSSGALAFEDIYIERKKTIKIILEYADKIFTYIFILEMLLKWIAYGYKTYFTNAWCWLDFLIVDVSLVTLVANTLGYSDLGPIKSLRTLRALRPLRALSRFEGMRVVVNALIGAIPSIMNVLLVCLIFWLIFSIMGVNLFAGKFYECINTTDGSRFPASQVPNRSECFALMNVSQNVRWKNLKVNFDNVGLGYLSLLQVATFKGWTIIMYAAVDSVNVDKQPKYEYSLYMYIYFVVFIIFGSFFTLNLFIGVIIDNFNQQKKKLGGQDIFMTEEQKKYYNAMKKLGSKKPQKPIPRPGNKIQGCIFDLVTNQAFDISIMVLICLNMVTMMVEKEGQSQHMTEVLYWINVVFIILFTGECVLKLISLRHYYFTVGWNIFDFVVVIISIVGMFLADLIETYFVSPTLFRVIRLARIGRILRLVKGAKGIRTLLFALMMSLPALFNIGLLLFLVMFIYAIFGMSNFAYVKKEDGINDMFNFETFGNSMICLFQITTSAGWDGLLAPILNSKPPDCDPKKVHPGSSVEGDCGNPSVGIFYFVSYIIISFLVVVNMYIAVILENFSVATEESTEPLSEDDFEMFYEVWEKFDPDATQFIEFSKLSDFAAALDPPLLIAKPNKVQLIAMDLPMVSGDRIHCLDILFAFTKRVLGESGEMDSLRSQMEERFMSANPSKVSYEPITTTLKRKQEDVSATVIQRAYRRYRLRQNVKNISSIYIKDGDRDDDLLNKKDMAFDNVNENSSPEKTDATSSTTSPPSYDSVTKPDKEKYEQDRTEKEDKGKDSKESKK
- Sequence (Q07699 whole entry partner, looked up): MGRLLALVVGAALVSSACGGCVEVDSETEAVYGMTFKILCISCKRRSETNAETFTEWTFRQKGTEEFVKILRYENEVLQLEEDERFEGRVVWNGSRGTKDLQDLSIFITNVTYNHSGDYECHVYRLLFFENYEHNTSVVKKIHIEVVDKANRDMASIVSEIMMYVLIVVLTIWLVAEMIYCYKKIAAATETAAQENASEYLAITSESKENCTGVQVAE
- experimentNotes: Tritiated compound binding to membranes from cells heterologously expressing hNav1.7 and the β1 subunit (Nav1.7 LBA)
- conditionLabel: competitive binding vs [3H]compound, membranes with hNav1.7 and β1 subunit; read-out: Nav1.7 LBA EVO IC50
Where a name gives a salt, the structure may show the parent alone.
valueKind: IC50

Reported IC50 ( CN(CCO)[C@H]1C[C@@H](c2cccc(C(F)(F)F)c2)CC[C@@H]1Oc1cc(F)c(S(=O)(=O)Nc2ccncn2)cc1Cl [Example 66, formate] ) = 2.59 nM

Quick note, IC50 for CN(C1CNC1)[C@H]1C[C@@H](c2cccc(C(F)(F)F)c2)CC[C@@H]1Nc1cc(F)c(S(=O)(=O)Nc2ccncn2)cc1Cl landed at 0.657 nM

The recorded IC50 for entry CN(C)[C@H]1C[C@@H](c2cccc(CC(F)(F)F)c2)CC[C@@H]1Nc1cc(F)c(S(=O)(=O)Nc2ccncn2)cc1Cl equals 1.22 nM

For record CN(C)[C@H]1C[C@@H](c2cccc(C(F)(F)F)c2)CC[C@@H]1Nc1cc(F)c(S(=O)(=O)Nc2ccncn2)cc1OC(F)F [Example 5, formate] the listed IC50 is 1.37 nM

CN(C)[C@H]1C[C@@H](c2cc(C(F)(F)F)cc(C(F)(F)F)c2)CC[C@@H]1Nc1cc(F)c(S(=O)(=O)Nc2ccncn2)cc1F yielded IC50 of 1.36 nM

Form field IC50, entry CN(C)[C@H]1C[C@@H](c2cccc(C(F)(F)F)c2)CC[C@@H]1n1ccc2cc(S(=O)(=O)Nc3ccncn3)c(F)cc21 [Example 10, formate] : 25.8 nM

Value of measured IC50 for the entry O=C1COc2cc(S(=O)(=O)Nc3ccncn3)c(F)cc2N1[C@H]1CC[C@H](c2cccc(C(F)(F)F)c2)C[C@@H]1N1CCCC1 : 23.6 nM

GET /value?item= CN1CC[C@@H](C(=O)N(C)[C@H]2C[C@@H](c3cccc(C(F)(F)F)c3)CC[C@@H]2Nc2cc(F)c(S(=O)(=O)Nc3ccncn3)cc2Cl)C1 &field=IC50 returns 2.6 nM

For reference, reported IC50 for CN(C)[C@H]1C[C@@H](c2cccc(Cl)c2Cl)CC[C@@H]1Oc1cc(F)c(S(=O)(=O)Nc2ccncn2)cc1Cl stands at 50.6 nM

Value of IC50 reported for the molecule CN(C)[C@H]1C[C@@H](c2cccc(F)c2)CC[C@@H]1Nc1cc(F)c(S(=O)(=O)Nc2ccncn2)cc1Cl [Example 26, formate] is 11.8 nM

Value of IC50 reported for the molecule CN(C)[C@H]1C[C@@H](c2cc(Cl)cc(Cl)c2)CC[C@@H]1Oc1cc(F)c(S(=O)(=O)Nc2ccncn2)cc1Cl [Example 82, formate] is 1.57 nM

// IC50 lookup, molecule = CN(C)[C@H]1CN(c2cc(C(F)(F)F)ccn2)CC[C@@H]1Nc1ccc(S(=O)(=O)Nc2ccncn2)c(F)c1 [Example 72, formate] , result: 274 nM

// IC50 value for CN(C)[C@H]1C[C@@H](c2ccnc(C(F)(F)F)c2)CC[C@@H]1Oc1cc(F)c(S(=O)(=O)Nc2ccncn2)cc1Cl [Example 76, formate] : 78.8 nM

For reference, reported IC50 for CN(C)[C@H]1C[C@@H](c2cccc(C(F)(F)F)c2F)CC[C@@H]1Nc1cc(F)c(S(=O)(=O)Nc2ccncn2)cc1Cl stands at 1.2 nM

Summary for this molecule, CN(C)[C@H]1C[C@@H](c2cccc(C(F)(F)F)c2)CC[C@@H]1N1C(=O)CCc2cc(S(=O)(=O)Nc3ccncn3)c(F)cc21 : IC50 is 6.73 nM

The recorded IC50 for CN(C)[C@H]1C[C@@H](c2cc(C(F)(F)F)cc(C(F)(F)F)c2)CC[C@@H]1Nc1cc(F)c(S(=O)(=O)Nc2ccncn2)cc1Cl is 0.473 nM

The molecule listed as CN(C)[C@H]1C[C@@H](c2cccc(C(F)(F)F)c2)CC[C@@H]1N1C(=O)COc2cc(S(=O)(=O)Nc3ccncn3)c(F)cc21 [Example 1, formate] has a reported IC50 of 18.8 nM

Documented IC50 of CN(C)[C@H]1C[C@](O)(c2cccc(C(F)(F)F)c2)CC[C@@H]1Nc1cc(F)c(S(=O)(=O)Nc2ccncn2)cc1Cl (single isomer, unassigned) : ≥ 2000 nM

Reported IC50 for CN(C1CCC1)[C@H]1C[C@@H](c2cccc(C(F)(F)F)c2)CC[C@@H]1Nc1cc(F)c(S(=O)(=O)Nc2ccncn2)cc1F [Example 40, formate] was 8.03 nM

Lab book: IC50 of CN(C)[C@@H]1C[C@@](O)(c2cccc(C(F)(F)F)c2)CC[C@H]1Nc1cc(F)c(S(=O)(=O)Nc2ccncn2)cc1Cl (single isomer, unassigned) [Example 38, formate] noted as ≥ 2000 nM

Noted for O=S(=O)(Nc1ccncn1)c1cc(F)c(N[C@H]2CC[C@H](c3cccc(OC(F)(F)F)c3)C[C@@H]2N2CCCC2)cc1F [Example 61, formate] : its IC50 reads 1.54 nM

Lab note: CN(C)CC(=O)N[C@H]1C[C@@H](c2cccc(C(F)(F)F)c2)CC[C@@H]1Nc1cc(F)c(S(=O)(=O)Nc2ccncn2)cc1Cl gave IC50 of 84 nM

Form field IC50, entry CN(C)[C@H]1C[C@@H](c2cc(F)cc(C(F)(F)F)c2)CC[C@@H]1Nc1cc(F)c(S(=O)(=O)Nc2ccncn2)cc1Cl : 0.886 nM

Notebook: CN(C)[C@H]1C[C@@H](c2cccc(C(F)(F)F)c2)CC[C@@H]1Oc1cc(F)c(S(=O)(=O)Nc2ccncn2)cc1F [Example 48, formate] , IC50 read as 37.7 nM
